MEASUREMENT_NOTES: yeast display, Sf9 membrane polyspecificity reagent, FACS + sequencing; frameworks hold sequencing errors
PROPERTY_MEASURED: polyreactivity (PSR sort gate)

INSERT INTO results (query_sequence, endpoint_result) VALUES
  ('QVQLVESGGGLVQAGGSLRLSCAASGSIFNDYGKAWYRQAPGKERDLVAAISASGGSTYYADSVKGRFTISRYNAKNPVYLQLNSLNPEDTAVYYCAAYYMGLYYLYVDALGYDYWGQGTQVTVSS', 'low polyreactivity'),
  ('QDQHVESGGGLVQAGGSLRLSCAASRRTIDLYAMGWYRQAPGKERELVAAITKGGGSTYYADSVKGRFTISRDNATNTVYLQMNSLKPEDTAVFYCAARKYKRIYRISSGIGYYWGQGTQVTVSS', 'high polyreactivity'),
  ('QVQLVESGGGLVQAGGSLRLSCAASGRIFRYYTMGWYTPAPGNERELVAAISSSGGRTYYADSVKGRFTISRDNAKNTVYLQMNSLKPEDTAVYYCNAYRRFSAFDYWGQGTQVTVTS', 'high polyreactivity'),
  ('QVQLVESGGGLVQAGGSLRLSCAASGINISWYAMGLYRQAPGKERELVAAISRRGGRTYYADSVKGRFTSSRDNAKNTVYLEMKSMLPEDTAVYYCAVVERQVPGPADGSVQVYYYWGQGTQVTGSS', 'high polyreactivity'),
  ('QVQLVESGGGLVQAGGSLRLSCAASGLTFFKYTMGWYIQAPGKERELVAAINGGGSTNYADSVKGRFTISRDNAKNTVYLQMNSLKPEDTAVYYCAAGLPYGYDYWGQGTQVTVSS', 'low polyreactivity'),
  ('QVQLVESGGGLVQAGGSLRLSCAASGRIFPWNTMGWYRQAPGKERELVAGINNGDRTYYADSVKGRFTISRDNAKNTVYLQMNSLKPEDTAVYYCAVDTWYFLFQYGYYQEGDYWGQGTQVTVSS', 'low polyreactivity'),
  ('QVQLVESGGGLVQAGGSLRLSCAASGRIFQYYAMGWYRQAPGKERELVAAISRTGSTYYADSVKGRFTISRDNGKNTVYLQMNRLNPEDTAVYYCAADYWPQSNRWVYFRYGYWGQGTQVTVSS', 'high polyreactivity'),
  ('QVQLVESGGGLLQAGGSLRLSCAASGSISAQYALGWYRQAPGKERELVAAIDFSGGSTYYADSVKGRFTISRDNAKNTVYLQRNSLKPEDTAVYYCAARGDGDPSTDITLVEYDYWGQGTQVTVSS', 'low polyreactivity'),
  ('QVQLVESGGGLVQAGGSLRLSCAASGFTFVTNAMGWYRQAPGKERELVAAISRRGGSTYYADSVKGRFTISRDNAKNTVDLQMNSLKPEDTPVYYCNADRQRRRQFSFSSPYDYWGQGTQVTVSS', 'high polyreactivity'),
  ('QVQLVESGGGLDQAGGSLRLSCAASGFIFRAYAMGLYRQAPGKERELVAAISWGGGSTYYADSVKGRFTISRDNAKNTVYLQMNSLKPEDTAVYYCAAEYEAYAYEYWGQGTQVTVSS', 'high polyreactivity'),
  ('QVQLVESGGGLVQAGGSLRLSCAASGGTFPRYAMGWYRQAPGKERELVAAISRSGGSTYYADSVKGRFTISRDNAKNTVYLQMNSLKPEDTAVYYCATGYSYIMDYWGQGTQVTVSS', 'high polyreactivity');

* * *

MEASUREMENT_NOTES: yeast display, Sf9 membrane polyspecificity reagent, FACS + sequencing; frameworks hold sequencing errors
PROPERTY_MEASURED: polyreactivity (PSR sort gate)

INSERT INTO results (query_sequence, endpoint_result) VALUES
  ('QVQLVESGGGLVQAGGSLRLSCAASGGIFSAYAMGWSRQAPGKERELVAVINGSGSNTYYADSVKGRFTISRDNAKNTVYLQMNSLKPEDTAVYYCAARVYVSRSKRLNYWGQGTQVTVSS', 'high polyreactivity'),
  ('QVQLVESGGGLVQAGGSLRLSCAASGRTFSGYAMVWYRQAPGKERELVAAISSGGGSTYYADSVKGRFTISRDNAKNTVYLQMNSLKPEDTAVYYCAADGYPGDYDYWGQGTQVTVSS', 'low polyreactivity'),
  ('QVQLVESGGGLVQAGGSLRLSCAASGRILGQYVMGWYRQAPGKERELVASIRSGGVSTYYADSVKGRFTISRDNAKNTVYLQMNSLKPEDTAVYYCATGSPGPRRYKFDYWGQGTQVTVSS', 'low polyreactivity'),
  ('QVQLVESGGGLVQAGRSLRLSCAASGSTLQDNAMGWYRQAPGKERELVAAITLNGGSTYYADSVKRRFTISRDHAKNTVYLPMNSLKPEDTAVYYCAAEYLYVGYWFDYWGQGTQVTVSS', 'high polyreactivity'),
  ('QVQLVESGGGLVQAGGSLRLSCAASGFISDWYAMGWYRQAPGTERELVATIDWIGGSTYADSVKGRFTISRDNAKNTVYLQMNSLKPEDTAVYYCAADSYFIAWYGAHYAYDYWGQGTQVTVSS', 'low polyreactivity'),
  ('QVQLVESGGGLVQAGGSLRLSCAASGSTFAVYAMGWYRQAPGKERELVAVISRGANTNYADSVKGRFTISRDNAKNTVYLQMNSLKPEDTAVYYCAAVDGYDSHDTGEYYYWGQGTQVSVSS', 'low polyreactivity'),
  ('QVQLVESGGGLDLAGGSLRLSCAASGSTFWRYAMGWYCQAPGKERELVAAISYTGTSTYSADSVKGRFTISRDNAKNTVYLQMNSLKPEDTAVYYCAAVFVGLVTGYDYSWGQGTQVNVSS', 'low polyreactivity'),
  ('QVQLVESGGGLVQAGGSLRLSCAASGIFSYYAMGWYRPAPGKERELVAAISSSGGSTYYADSVKGRFTISRDNAMNTVYLQMNSLKPEDTAVYYCNVRNYYNDYYYWGQGTQVTVSS', 'high polyreactivity'),
  ('QDQLVESGGGLVQAGGSLRLSCDASGSIFEQNAMGWYRPAPGKERELVAAISSGSTNYADSVKGRFTISRDNAKNTVYLQMNSLKPEDTAVYYCAKRWRRRFVDVWSLYDYWGQGTQVTVSS', 'low polyreactivity'),
  ('QVQLVESGGGLVHAGGSLRLSCAASGSTFPGYAMGWYRQAPGKERELVAAISKRGGSTRYADSVKGRFTISRDNANNTVYLQMNSLKPEDTAVYYCAASYSYSGSGGGYWGQGTQVTVSS', 'high polyreactivity'),
  ('QVQLVESGGGLVQAGGSLRLSCAASGSTYFRNAMGWYRQAPGKERELVAAISSSCGSTYYADSVKGRFTISRDNAKNTVYLQMTSLKPEDTAVYYCNADWYYAGYGYWGQGTQVTVSS', 'low polyreactivity'),
  ('QVQLVESGGVLVHAGGILRLSCAASGSTIVRYAMGWYRQAPGKERELVAAKSSRGGSTYYADSVKGRFTITRDNAKNTVYLQMNILKPEDTGVYYCSAAPPGTIAYRVGSWGQGTQVTVSS', 'high polyreactivity'),
  ('QVQLVESGGGLVQAGGSLRLSCAASGGIFTSNAMGWYRQAPGKERELVAAITKNGGRTYYADSVKGRFTISRDNAKNTVYLQMNSLKPEDTAVYYCNAAVTFRCYDYWGQGTQVTVSS', 'high polyreactivity'),
  ('QVQLVESGGGLVQAGGSLRLSCAASGLIFARNAMGWYRQAPGKERELVAAITRRGTSTYYADSVKGRFTISRDNAKNTVYLQMNSLKPEDTAVYYCAARGGGGQRYDYWGQGTQVTVSS', 'high polyreactivity'),
  ('QVQLVESGGGLVQAGGSLRLSCAASGSTFQSNARGWYRQAPGKERELVASITSSGVSTYYADSVKGRFTISRDNAKNTVYLQMNSLKPEDTAVYYCAASSYDAYDYGFRFDYWGQGTQVTVSS', 'low polyreactivity'),
  ('QVQLVESGGGLVQAGGSLRLSCAASGNTFFVYAMGWDRQAPGKERELVATITLNGGSTYYADSVKGRFTISRDNAKNTVYLQMNSLKPEDTAVYYCAVEPDVYPSWYYYVDYDYWGQGTQVTVSS', 'low polyreactivity'),
  ('QVQLVEAGGGLVQAGGTLRLSCAASGYTFIYYAMGWYRQAPGKERELVATISIDGSTNYADSVKRRFTISRDNAKNTVYLQMNSLKPEDTAVYYCNRERYEDYDYWGQGTQVTVSS', 'high polyreactivity'),
  ('QVQLVESGGGLVQAGGSLRLICAASGFTYSWYAMGWYRQAPGKERELVAAISWDGDSTYYADSVKGRFTISRDIAKNSVYLQMISLKPEDTAVYYCAADFSYYWVGYDYWGQGTQVTVSS', 'high polyreactivity'),
  ('QVQLVESGGGLVQAGGSLRLSCSDSGSTFPYHAMGWYRPAPGKERELVAAIDSSDGITYYADSVKGRFTISRDNAKNTVYLQMNRLKPEDTAVYYCAAEDYEAGYDFWGQGTQVTVSS', 'high polyreactivity'),
  ('QAQLVESGGGLVQAGGSLRLSCAASGSIMYYAMGWYRHAPWKERELVATITRGGSTYYADSVKGRFTISRDNAKNTVYLQMNSLKPEDTAVYYCAKQFLPSGVYYEYDSWGQGTQVTVSS', 'low polyreactivity'),
  ('QVQLVESGGGLVQAGGSLRLSCAASGRIFRGYAMGWYRQAPGKERELVAAISQSGSSTYYADSVKGRFTISRDNAKNTVYLQMNSLKPEDTAVYFCAVKYLKHFGYWGQGTQVTVSS', 'high polyreactivity');

Data provenance is the nanobody polyreactivity screen of Harvey et al. (2022).
